System: MDA-MB-231 breast
Protocol summary: NCI tumour cell line growth inhibition, 48 h
Measured metric: TGI (µM)
Express it in µM; write the number only.

Molecule | TGI / µM
COc1ccc(/C(C)=C(\c2ccc(Cl)cc2)c2ccc(OCCN3CCCC3)cc2)cc1F | 6.97

Prompt line: What reported TGI corresponds to CCOC(=O)c1c(C)nc2ccc(Cl)cc2c1-c1ccccc1 on MDA-MB-231 breast?
Response line: 38.4

Prompt line: Provide the documented TGI with MDA-MB-231 breast as the system for O=C(O)C(CSC(c1ccccc1)(c1ccccc1)c1ccccc1)N=Cc1cccs1 (stereo not drawn)
Response line: 7.01

Prompt line: Identify the measured TGI of COc1cc(/C=C/C(=O)c2ccc(Nc3ncnc4ccccc34)cc2)cc(OC)c1 for MDA-MB-231 breast.
Response line: 49.1

---

Tested on: MDA-MB-435
Measured metric: GI50

Smiles representation | GI50
COc1ccc(/C=C2\CN(Cc3cn(CCCNc4ccnc5cc(Cl)ccc45)nn3)C/C(=C\c3ccc(OC)c(OC)c3)C2=O)cc1OC | 1.12 µM
CCOC(=O)c1c(-c2ccccc2)[n+](=O)c2ccc(Cl)cc2n1[O-] | 10.2 µM

Now let's try a different one.
Prompt line: Request: GI50, test system MDA-MB-435, entry C=C1C(=O)O[C@H]2[C@H]1CC/C(Cn1cc(Cn3ccc4ccccc43)nn1)=C\CC[C@@]1(C)O[C@@H]21
Response line: 1.7 µM

---

Entries and their TGI values follow.
System: LXFL 529 NSCLC
Protocol summary: NCI tumour cell line growth inhibition, 48 h

Study these solved cases before continuing.
Compound | TGI
C[C@@H](CO)OCOCc1ccccc1 | > 100 µM
CCC1=C(C)/C(=C/c2[nH]c(CBr)c(CC)c2C)N=C1CBr | 17.9 µM
CC(=O)NC(CCCCNC(=O)N(CCCl)N=O)C(=O)NCc1ccccc1 (configuration not stated) | > 100 µM
Nc1ncnc(NC2C=C(CO)C(O)C2O)c1[N+](=O)[O-] (configuration not stated) | > 100 µM

Prompt line: API: value(readout= TGI, system= LXFL 529 NSCLC, query= C/C(=N\NC(=O)c1cccnc1)c1cccc(/C(C)=N/NC(=O)c2cccnc2)n1 )
Response line: > 100 µM

Prompt line: Can you look up TGI on LXFL 529 NSCLC for Cc1c(C(=O)CC(=O)C(=O)Nc2ccc(Cl)c(Cl)c2)[n+](=O)c2ccccc2n1[O-] ?
Response line: 32.4 µM

Prompt line: # get_value(readout= TGI, system= LXFL 529 NSCLC) for COC(=O)C1=CN=C(C(=O)OC)NN1
Response line: > 100 µM

---

Tested on: 786-0 renal
Measured metric: GI50

Example compounds with recorded GI50:
Compound | GI50
Clc1cc(Cl)c(Cl)c(-c2nc(-c3cccnc3)cs2)c1 | 12.9 µM
CCOC(=O)c1ccc(N(CCOS(C)(=O)=O)CCOS(C)(=O)=O)cc1C | 16.7 µM
COc1ccc(-c2cnc3ccnn3c2-c2cc(OC)c(OC)c(OC)c2)cc1 | 4.31 µM

Moving on to the next compound.
Prompt line: Provide the documented GI50 with 786-0 renal as the system for CCN(CC)CCOc1ccc(/C(=C(\C)Cc2ccc(OC)cc2)c2ccc(OC(=O)NCc3ccccc3)cc2)cc1
Response line: 1.64 µM

---

Test system: SNB-19 CNS
Protocol summary: NCI tumour cell line growth inhibition, 48 h
We begin with a simple list: items and their reported TGI.

Some solved entries appear below for comparison.
Compound | TGI
O=C(NC1CCC(=O)N1C(=O)OCc1ccccc1)OCc1ccccc1 (stereo not given) | > 100 µM
OC(c1cccnc1)C(F)(F)c1nc2ccccc2o1 (stereo not given) | > 100 µM
Nc1ccc2c(c1)C(=O)N(O)C2=O | > 100 µM

Prompt line: Query for SNB-19 CNS: what TGI does the record show for CCOC(=O)C(Cc1ccccc1)NC(=O)c1ccc(N=NN(C)C)cc1 (stereo not given) ?
Response line: > 100 µM

Prompt line: Missing value: TGI, SNB-19 CNS, entry N#Cc1c(-c2ccccc2)c(N=Nc2ccc(F)cc2)c(=O)n2c1[nH]c1ccccc12 . Fill in?
Response line: 33.5 µM

Prompt line: Value wanted: TGI (SNB-19 CNS) of entry COC(=O)C(C)NP(=O)(OCc1ccc(Cn2cnc3c(=O)[nH]c(N)nc32)cc1)Oc1ccccc1 (stereo not given)
Response line: > 100 µM

Prompt line: // map O=C(CCN1CC2CCC(CC2)C1)c1cccs1 to recorded TGI (system: SNB-19 CNS)
Response line: > 100 µM

Prompt line: Return TGI measured with SNB-19 CNS given this compound: Nc1cc2c3c(cccc3c1)C(=O)N(c1ccc(OCCN3CCCCC3)cc1)C2=O
Response line: 32.4 µM

Prompt line: Lookup: TGI / SNB-19 CNS / O=C1C(=O)N(C(=O)c2ccc(Cl)c(Cl)c2)c2ccc(Cl)cc21
Response line: > 100 µM

Prompt line: Provide the documented TGI with SNB-19 CNS as the system for CC[C@@]1(O)C(=O)OCc2c1cc1n(c2=O)Cc2c-1nc1ccc(O)cc1c2CC[Si](C)(C)C
Response line: > 100 µM

---

Test system: DLD-1 colon
Protocol summary: NCI tumour cell line growth inhibition, 48 h
Measured metric: TGI

Compound | Experimental target | TGI
CC(C)NCC(O)COC(=O)c1cccs1 (stereo unspecified) | DLD-1 colon | > 100 µM
COC1C=CC(C(=O)[N+]2=Cc3[nH]c4ccccc4c3CC2)O1 (stereo unspecified) | DLD-1 colon | > 100 µM
O=C(/C=C\c1cccc2ccccc12)c1cccs1 | DLD-1 colon | 16.9 µM
COc1cc2nc(Sc3c([N+](=O)[O-])ncn3C)[nH]c2cc1OC | DLD-1 colon | 46 µM
N.N.N.N.N.N.[I-].[Os] | DLD-1 colon | > 100 µM

Moving on to the next compound.
Prompt line: I'm curious: which TGI was measured for Nc1ncnc(NC2C=C(CO)C(O)C2O)c1[N+](=O)[O-] (stereo unspecified) tested on DLD-1 colon?
Response line: > 100 µM

---

System: ACHN renal
Protocol summary: NCI tumour cell line growth inhibition, 48 h
Measured metric: TGI

Some compounds with known TGI results, for comparison:
Compound | Meas value
COc1ccc(CNC2=C(NC(C)=O)C(=O)c3ccccc3C2=O)cc1 | 8.69 µM
COC(=O)/C(C#N)=C1\CCC(O)N1C (stereo not drawn) | > 100 µM
CC(NC(=O)C(N)Cc1ccc(O)cn1)C(=O)O (stereo not drawn) | > 100 µM
Nc1ccc2c(c1)C(=O)N(O)C2=O | > 100 µM
CC1=C2C(=O)OCC23C=COC3(C)O1 (stereo not drawn) | > 100 µM

Query compound follows.
Prompt line: Could you share which TGI value was measured for OCC1NCC(O)C(O)C1O (stereo not drawn) ?
Response line: > 100 µM

---

System: SW-620 colon
Protocol summary: NCI tumour cell line growth inhibition, 48 h
Below, each entry is listed with its recorded TGI.

Compound | TGI
CC[C@@]1(O)C(=O)OCc2c1cc1n(c2=O)Cc2c-1nc1ccc(O)cc1c2CC[Si](C)(C)C | > 100 µM
C=C(C)CC1=C(OCC)C(OC)(OCC)C1=O (stereo not given) | > 100 µM
CCC(C)C1NC(=O)C2CCCN2C(=O)C(CC2CO2)OC(=O)CCNC(=O)C(C)N(C)C(=O)C(C(C)C)N(C)C1=O (stereo not given) | > 100 µM

Prompt line: Suppose we examine the compound NCCNc1nc(N2CCCC2)c2nc(Cl)c(NCc3ccccc3)nc2n1 ; what TGI value has been reported?
Response line: 4.73 µM

Prompt line: Which TGI reading was recorded for the compound CCOC(=O)/C(=C/c1ccc([N+](=O)[O-])cc1)C(=O)c1ccccc1 ?
Response line: 4.84 µM

---

Tested on: HCT-116 colon
Protocol summary: NCI tumour cell line growth inhibition, 48 h
The entries below come with measured TGI values attached.

Recorded TGI, per entry:
Compound | Experimental target | Measured metric | Meas value
OC(c1cccnc1)C(F)(F)c1nc2ccccc2o1 (stereo not given) | HCT-116 colon | TGI | > 100 µM
O=c1c2cc([N+](=O)[O-])ccc2n(Cc2ccccc2)n1Cc1ccccc1 | HCT-116 colon | TGI | > 31.6 µM
C=C1C[C@@H](O)[C@@H](Br)C(C)(C)[C@]12CCC(C)(Cl)C(Br)C2 (stereo not given in full) | HCT-116 colon | TGI | > 100 µM

Now examine the next entry.
Prompt line: Could you share what TGI was measured for Cc1cc(O)c(C(C)C)cc1CN1CCCCC1 , tested on HCT-116 colon?
Response line: > 100 µM

---

Tested on: SNB-75 CNS
Protocol summary: NCI tumour cell line growth inhibition, 48 h
Measured metric: TGI

Before answering, review these 3 worked examples.
Molecule | Meas value
COC1O[C@@H]2CCN3C(=O)[C@@H](OC(=O)c4ccc([N+](=O)[O-])cc4)[C@H]1C23 (some centres undefined) | > 100 µM
O=CN1CCN(C(=O)c2cc(Cl)cc(Cl)c2)C1=S | 27 µM
O=C1N=C(c2ccccc2)OC1C(=O)c1ccccc1 (centres undefined) | > 100 µM

// next entry
Prompt line: # input molecule: COC(=O)C1C(C)N1C (centres undefined) ; wanted: its TGI
Response line: > 100 µM
